# Method Notes: clinical
# Study Conditions: human, in vivo, po
Metric Name: Tmax

State the recorded Tmax for this entry: COc1ccc(CN2CCN(CCO)CC2)c(OC)c1OC [IMB-1028814] ~1 h

* * *

# Method Notes: FIH study, FE arm of SAD part: effect of food on plasma PK (150 mg IMB-1018972)
# Study Conditions: human, in vivo, Median tmax
Metric Name: Tmax (h)
Answers are plain numbers, in h.

State the recorded Tmax for this entry: COc1ccc(CN2CCN(CCO)CC2)c(OC)c1OC 1
